System: OVCAR-5 ovarian
method notes: NCI tumour cell line growth inhibition, 48 h
Below, each entry is listed alongside its reported TGI.

# molecule, endpoint result
records = [
    ("COc1cc(COC(=O)NC(Cc2cccs2)C(=O)O)c([N+](=O)[O-])cc1OC (stereo not drawn)", "> 100 µM"),
]

Fill in the blank: the reported TGI of `COc1ccc(Sc2ccccc2[N+](=O)[O-])cc1` is ____.
> 100 µM

Consider the molecule shown here: `CCOC(=O)c1c(SCCN(CC)CC)n(-c2ccccc2)c(=S)n(-c2ccccc2)c1=O` What is its recorded TGI?
> 57.6 µM

* * *

Test system: MCF7 breast
method notes: NCI tumour cell line growth inhibition, 48 h
The entries below come with measured TGI values attached.

Answered cases to consult:
# compound, TGI
records = [
    ("CO/C(N)=C(\\C#N)N=Cc1cccs1", "> 100 µM"),
    ("O=C(Cn1c(-c2ccccc2)cc2ccccc21)N1CCOCC1", "> 100 µM"),
    ("Cc1cccc2c1Oc1ncccc1C2NC(=O)CN(C)C (stereo not given)", "> 10 µM"),
]

Give TGI (MCF7 breast) of the following compound: `COc1ccc(OC)c2c(Nc3ccc(S(=O)(=O)O)c4cc(S(=O)(=O)O)cc(S(=O)(=O)O)c34)cc(C)nc12`
> 100 µM

API: value(readout=TGI, system=MCF7 breast) for record `N#Cc1c(N)nc(N2CCOCC2)c(C#N)c1-c1ccc(Cl)cc1Cl`
36.2 µM

* * *

Recorded TGI values for a group of compounds are listed next.
Test system: SF-268 CNS
method notes: NCI tumour cell line growth inhibition, 48 h

# compound, endpoint result
rows = [
    ("Cc1ccc(C)c(C(=O)CC2OC(O)C(Cl)C2Cl)c1 (stereo not given)", "> 100 µM"),
]

From here, focus on the item given below.
So what's the measured TGI for this one? `O=C(C[N+]1(c2ccccc2)CCOCC1)c1ccccc1`
> 100 µM

* * *

Test system: EKVX NSCLC
method notes: NCI tumour cell line growth inhibition, 48 h
measurement label: TGI

State its TGI on EKVX NSCLC: `O=C(NCc1ccc(Cl)c(Cl)c1)c1nc2ccccc2nc1NCc1ccc(Cl)c(Cl)c1`
> 100 µM

// map `O=C(C[N+]1(c2ccccc2)CCOCC1)c1ccccc1` to recorded TGI (system: EKVX NSCLC)
> 100 µM

For the record `COc1cc(O)c2c(=O)c(O)c(-c3ccc(O)c(O)c3)oc2c1` , what value of TGI is listed for EKVX NSCLC?
> 100 µM

What measured TGI is associated with `CCOP(=O)(OCC)/C(C#N)=C(\C)c1ccco1` on EKVX NSCLC?
> 10 µM

Recorded TGI for CC1=C2[C@@H](c3ccccc3)C3C=CC2(C=C3C(F)(F)F)N(C(=O)NC2CCCCC2)C1=O (some centres not stated) with EKVX NSCLC, please?
> 100 µM

Lookup: TGI / EKVX NSCLC / `CC(C)[C@H](NC(=O)OCc1ccccc1)C(=O)N[C@H](/C=C/C(=O)OC(C)(C)C)CO`
> 100 µM

Give recorded TGI with EKVX NSCLC for the following compound: `CN(C)c1ccc(/C=C2\CCCCCC2=O)cc1`
> 100 µM

Form field: TGI recorded for `Cc1[nH]n(C(=O)c2ccc(Cl)cc2)c(=O)c1/C=C1\C(O)=CC(=O)c2ccccc21` with EKVX NSCLC (enter value)
> 100 µM

EKVX NSCLC / TGI / `C/C(=N\NC(=O)c1ccncc1)c1ccccc1O` : value?
> 100 µM

What value of TGI on EKVX NSCLC does CC(C)S1=C2C(=O)CC(C)(C)CC2=Nc2ccccc21 (configuration not stated) have?
> 100 µM

EKVX NSCLC / TGI / `Cn1c(=O)c(C#N)c(O)c2cc3ccccc3nc21` : value?
> 100 µM

Lab note: need TGI with EKVX NSCLC for entry `O=C(c1ccccc1)n1c2ccc(Br)cc2c2nc3ccccc3nc21` , please look it up.
> 100 µM
